Target: ATP-binding cassette transporter A1 (ABCA1) (UniProt P41233 1-2261, limits assumed)
Sequence (P41233 whole entry): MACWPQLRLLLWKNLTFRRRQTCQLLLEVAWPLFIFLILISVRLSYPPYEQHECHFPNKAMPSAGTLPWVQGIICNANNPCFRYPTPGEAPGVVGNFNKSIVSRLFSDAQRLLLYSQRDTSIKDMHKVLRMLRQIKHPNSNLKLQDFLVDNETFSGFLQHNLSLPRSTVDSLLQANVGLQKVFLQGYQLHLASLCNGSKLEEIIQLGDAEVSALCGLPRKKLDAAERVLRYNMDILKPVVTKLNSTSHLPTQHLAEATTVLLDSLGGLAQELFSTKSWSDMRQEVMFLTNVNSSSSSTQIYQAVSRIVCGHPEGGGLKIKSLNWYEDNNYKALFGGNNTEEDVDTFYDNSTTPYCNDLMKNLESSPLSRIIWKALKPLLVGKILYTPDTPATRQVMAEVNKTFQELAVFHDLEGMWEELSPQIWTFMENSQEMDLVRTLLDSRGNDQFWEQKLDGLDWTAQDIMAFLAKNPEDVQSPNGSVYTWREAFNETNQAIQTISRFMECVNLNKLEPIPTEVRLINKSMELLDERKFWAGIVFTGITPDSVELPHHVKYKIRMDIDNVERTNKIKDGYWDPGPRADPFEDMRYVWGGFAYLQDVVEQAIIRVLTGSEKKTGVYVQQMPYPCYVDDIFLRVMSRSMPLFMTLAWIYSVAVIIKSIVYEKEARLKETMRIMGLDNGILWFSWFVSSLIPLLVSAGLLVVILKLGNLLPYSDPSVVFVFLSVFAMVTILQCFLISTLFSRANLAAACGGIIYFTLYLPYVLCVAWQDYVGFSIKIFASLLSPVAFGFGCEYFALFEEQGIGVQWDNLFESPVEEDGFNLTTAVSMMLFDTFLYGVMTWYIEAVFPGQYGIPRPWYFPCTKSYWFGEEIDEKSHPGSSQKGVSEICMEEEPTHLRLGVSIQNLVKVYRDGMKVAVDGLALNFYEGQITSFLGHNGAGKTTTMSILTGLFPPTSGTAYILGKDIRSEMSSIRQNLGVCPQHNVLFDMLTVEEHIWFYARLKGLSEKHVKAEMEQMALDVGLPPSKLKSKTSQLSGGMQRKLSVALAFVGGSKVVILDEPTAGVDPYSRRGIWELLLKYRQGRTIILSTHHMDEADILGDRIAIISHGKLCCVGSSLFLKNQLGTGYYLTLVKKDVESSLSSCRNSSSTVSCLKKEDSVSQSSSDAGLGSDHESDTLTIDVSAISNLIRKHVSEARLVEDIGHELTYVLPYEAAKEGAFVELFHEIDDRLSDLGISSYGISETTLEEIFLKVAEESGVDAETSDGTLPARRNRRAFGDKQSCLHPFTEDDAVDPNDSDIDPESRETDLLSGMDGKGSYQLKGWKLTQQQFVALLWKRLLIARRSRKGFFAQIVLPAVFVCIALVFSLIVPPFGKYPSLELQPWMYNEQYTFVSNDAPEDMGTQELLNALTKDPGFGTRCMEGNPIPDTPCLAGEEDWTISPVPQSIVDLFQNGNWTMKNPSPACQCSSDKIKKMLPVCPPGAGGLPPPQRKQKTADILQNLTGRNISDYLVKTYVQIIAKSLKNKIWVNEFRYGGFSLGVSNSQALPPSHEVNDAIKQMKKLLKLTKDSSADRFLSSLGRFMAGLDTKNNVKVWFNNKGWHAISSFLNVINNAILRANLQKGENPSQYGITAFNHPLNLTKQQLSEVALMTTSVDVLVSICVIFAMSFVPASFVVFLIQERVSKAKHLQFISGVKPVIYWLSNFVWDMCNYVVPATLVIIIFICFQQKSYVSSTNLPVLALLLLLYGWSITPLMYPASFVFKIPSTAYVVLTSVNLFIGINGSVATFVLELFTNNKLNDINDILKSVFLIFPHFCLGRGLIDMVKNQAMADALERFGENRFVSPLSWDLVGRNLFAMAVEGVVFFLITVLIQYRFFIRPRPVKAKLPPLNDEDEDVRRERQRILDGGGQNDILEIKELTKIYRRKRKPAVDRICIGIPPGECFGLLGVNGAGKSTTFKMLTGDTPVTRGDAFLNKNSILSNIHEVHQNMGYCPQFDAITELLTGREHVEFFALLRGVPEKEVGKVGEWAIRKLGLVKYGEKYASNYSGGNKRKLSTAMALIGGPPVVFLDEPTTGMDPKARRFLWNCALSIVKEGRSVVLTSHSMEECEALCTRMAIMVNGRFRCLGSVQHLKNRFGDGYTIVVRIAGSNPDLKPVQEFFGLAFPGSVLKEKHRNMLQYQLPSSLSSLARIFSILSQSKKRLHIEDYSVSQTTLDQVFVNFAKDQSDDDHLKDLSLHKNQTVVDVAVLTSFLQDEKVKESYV
Experiment: cell-based or functional assay
measuredMetric: % cholesterol efflux/4 hours at 0.1 µg/ml (%)

> print(dat)
                            binder  assayresult
1  ELRDRLEAWLDLLRELLERL [N1154-10]         0.58

P: ELREKLEAWLELLRELLERL [N1154-6]
Q: DLRDRLDAWLDLLRDLLDRL [N1154-11]
R: ELRDKLEAWLDLLRELLERL [N1154-8]
# ascending order, key=% cholesterol efflux/4 hours at 0.1 µg/ml Write out the labels following the order that was asked for. R, P, Q
(R: 0%, P: 0.18%, Q: 0.58%)

P: DLRDKLDAWLDLLRDLLDRL [N1154-9]
Q: ELRERLEAWLELLRELLERL [N1154-7]
Which shows the larger % cholesterol efflux/4 hours at 0.1 µg/ml value: P or Q ? // respond with label for picked entry Q
(Q: 0.23%, P: 0.08%)

Data provenance: patent US20110190196A1
